- procedure_summary: chemical genetic growth profiling, strain panel (AID 1159580);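 also: tested at 20 µM; growth read once vehicle control cultures reached saturation at 30 °C; 1 = growth at the plate median or of vehicle wells; lower values mean less growth of the strain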
- condition_label: S. cerevisiae deletion strains, growth OD, locus YGL227W, strain vid30, stronger effect = lower value
The campaign covered roughly 5,500 compounds. About 2,000 (36%) were called active. Another 18% or so got no clear call; they are omitted. Some of the results follow.
result_type: normalized growth
Give the figure only, with no unit attached.

CC(=O)O[C@H]1C[C@@]2(C)[C@H](c3ccoc3)OC(=O)[C@H]3O[C@]32[C@@]2(C)C1[C@]1(C)C(C[C@H]2OC(C)=O)C(C)(C)[C@H](OC(C)=O)C[C@@H]1OC(C)=O (stereo partly drawn) | 0.983
CC(C(=O)O)[C@H]1CCC2C3CC=C4C[C@@H](O)CC[C@]4(C)C3CC[C@@]21C (stereo partly drawn) | 1.04
C=C1C2CC[C@@]3(C)[C@H](c4ccoc4)OC(=O)C[C@]13O[C@H]1CC(=O)C(C)(C)[C@H](C(O)C(=O)OC)[C@@]21C (stereo partly drawn) | 0.991

Query: // query normalized growth value for entry CC(=O)[C@H]1CCC2C3CC=C4C[C@@H](O)CC[C@]4(C)C3CC[C@@]21C (stereo partly drawn)
Response: 1.01

Query: // query normalized growth value for entry CC(=O)O[C@@H]1CC2C(C)(C)C(=O)CC[C@]2(C)C2CC[C@@]3(C)[C@H](c4ccoc4)OC(=O)C4OC43[C@@]21C (stereo partly drawn)
Response: 0.975

Query: // query normalized growth value for entry S=c1ccss1
Response: 1.01

Query: // query normalized growth value for entry O=C1c2c(O)ccc(O)c2C(=O)c2c(NCCNCCO)ccc(NCCNCCO)c21
Response: 1.08

Query: // query normalized growth value for entry O=C(O)/C=C(\CC(=O)O)C(=O)O
Response: 0.98
